Molecular target: T1, recombinant human CEACAM-1 (R&D Systems cat. no. 2244-CM-050) (human, UniProt P13688 35-428)
T1 construct: Coated on the ELISA plate at 0.5 ug/ml
T1 sequence (looked up): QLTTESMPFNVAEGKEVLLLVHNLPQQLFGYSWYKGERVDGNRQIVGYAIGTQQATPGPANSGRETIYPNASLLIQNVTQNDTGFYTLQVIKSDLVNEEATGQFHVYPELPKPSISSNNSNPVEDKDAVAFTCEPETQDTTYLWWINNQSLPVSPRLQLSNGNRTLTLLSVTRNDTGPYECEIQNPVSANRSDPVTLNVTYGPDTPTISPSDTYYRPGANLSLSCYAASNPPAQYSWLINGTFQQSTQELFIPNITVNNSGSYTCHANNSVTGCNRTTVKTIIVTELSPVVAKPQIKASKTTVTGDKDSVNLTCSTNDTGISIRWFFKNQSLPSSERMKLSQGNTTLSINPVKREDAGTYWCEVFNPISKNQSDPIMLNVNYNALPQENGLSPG
Assay: competition ELISA on coated recombinant human CEACAM-1; competitor biotinylated chimeric CM-10 IgG1
observed_property: IC50 (µg/mL)
I only need the number, in µg/mL, no unit after it.

| binder | observed_property | unit_info | reported_result |
| --- | --- | --- | --- |
| humanized anti-CEACAM-1 variant VH5/VK1, IgG4 (S241P) (antibody, V domains shown, Tested as human IgG4 (S241P) / kappa antibody; only the variable regions are tied to this variant) VH: QVQLVQSGAEVKKPGASVKVSCKASGYAFTNNLIEWVRQAPGQGLEWIGVINPGSGDTNYNEKFKGRVTMTADKSISTAYMELSRLRSDDTAVYYCARGDYYGGFAVDYWGQGTTVTVSS VL: DIQMTQSPSSLSASVGDRVTITCRTSQDIGNYLNWYQQKPGKAVKLLIYYTSRLHSGVPSRFSGSGSGTDYTLTISSLQQEDIATYFCQQGKSLPRTFGGGTKVEIK | IC50 | µg/mL | 0.74 |

In the following, a different binder is considered.
-- ask Identify measured IC50 associated with humanized anti-CEACAM-1 variant VH5/VK2, IgG4 (S241P) (antibody, V domains shown, Tested as human IgG4 (S241P) / kappa antibody; only the variable regions are tied to this variant) VH: QVQLVQSGAEVKKPGASVKVSCKASGYAFTNNLIEWVRQAPGQGLEWIGVINPGSGDTNYNEKFKGRVTMTADKSISTAYMELSRLRSDDTAVYYCARGDYYGGFAVDYWGQGTTVTVSS VL: DIQMTQSPSSLSASVGDRVTITCRTSQDIGNYLNWYQQKPGKAVKLLIYYTSRLHSGVPSRFSGSGSGTDYTLTISSLQPEDIATYFCQQGKSLPRTFGGGTKVEIK
-- reply 0.7

All figures here come from patent US20240092934A1.
